test system: PPARg:RXRa 270nM:90nM, anti-RXR (NR concentration 270 nM, RXRa partner concentration 90 nM); experiment: PBM binding z-score (relative to random genomic background probes); higher = stronger binding; sequences stand for … in GC…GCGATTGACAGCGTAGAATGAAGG
Measurement label: PBM binding z-score
Lab note: jot the number down without any unit.

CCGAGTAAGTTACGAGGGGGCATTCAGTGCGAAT	1.15
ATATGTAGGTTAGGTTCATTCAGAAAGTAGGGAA	4.37
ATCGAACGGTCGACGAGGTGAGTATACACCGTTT	-0.158
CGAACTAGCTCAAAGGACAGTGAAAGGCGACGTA	2.13
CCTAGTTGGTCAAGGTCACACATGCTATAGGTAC	3.69
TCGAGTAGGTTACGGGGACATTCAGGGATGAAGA	3.06
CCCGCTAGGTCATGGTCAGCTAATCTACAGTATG	2.82
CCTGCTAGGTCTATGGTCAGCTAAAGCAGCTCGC	0.268
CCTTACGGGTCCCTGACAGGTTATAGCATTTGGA	-0.345
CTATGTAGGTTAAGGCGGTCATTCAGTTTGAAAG	4.25

# get_value(readout='PBM binding z-score', item= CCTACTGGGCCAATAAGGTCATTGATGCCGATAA )
3.1

# get_value(readout='PBM binding z-score', item= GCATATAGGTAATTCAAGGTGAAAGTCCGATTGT )
1.51

# get_value(readout='PBM binding z-score', item= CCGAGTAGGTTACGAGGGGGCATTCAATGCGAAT )
3.7

# get_value(readout='PBM binding z-score', item= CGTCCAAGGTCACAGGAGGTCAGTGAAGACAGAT )
6.69

# get_value(readout='PBM binding z-score', item= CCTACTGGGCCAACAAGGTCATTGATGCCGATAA )
3.3

====

system: PPARg homodimer (NR concentration 180 nM); assay: PBM binding z-score (relative to random genomic background probes); higher = stronger binding; sequences stand for … in GC…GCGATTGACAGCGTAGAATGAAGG
Measurement label: PBM binding z-score
Lab note: jot the number down without any unit.

Sample records with PBM binding z-score:
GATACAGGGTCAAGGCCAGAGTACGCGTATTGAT	1.95
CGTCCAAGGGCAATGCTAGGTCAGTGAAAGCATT	1.08
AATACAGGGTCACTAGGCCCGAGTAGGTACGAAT	1.77
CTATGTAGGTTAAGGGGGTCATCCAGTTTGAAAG	3.6
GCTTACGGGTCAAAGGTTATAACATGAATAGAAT	3.61

Moving on to the next sequence.
# get_value(readout='PBM binding z-score', item= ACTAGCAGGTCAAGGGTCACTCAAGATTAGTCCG )
3.91

====

tested on: RXRa homodimer (NR concentration 180 nM); experiment: PBM binding z-score (relative to random genomic background probes); higher = stronger binding; sequences stand for … in GC…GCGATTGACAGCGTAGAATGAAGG
Measurement label: PBM binding z-score

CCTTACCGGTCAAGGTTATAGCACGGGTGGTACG	1.46
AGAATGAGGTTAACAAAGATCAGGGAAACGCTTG	2.69
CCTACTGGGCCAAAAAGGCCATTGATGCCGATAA	-0.173
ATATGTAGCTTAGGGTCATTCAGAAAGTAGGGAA	4.87

Give PBM binding z-score (RXRa homodimer (NR concentration 180 nM)) of the following sequence: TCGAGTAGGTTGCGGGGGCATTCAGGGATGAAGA
1.5

Give PBM binding z-score (RXRa homodimer (NR concentration 180 nM)) of the following sequence: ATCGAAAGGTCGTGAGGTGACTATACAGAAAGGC
5.22

Give PBM binding z-score (RXRa homodimer (NR concentration 180 nM)) of the following sequence: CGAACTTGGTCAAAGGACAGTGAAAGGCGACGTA
0.736

====

test system: VDR homodimer (NR concentration 270 nM); assay: PBM binding z-score (relative to random genomic background probes); higher = stronger binding; sequences stand for … in GC…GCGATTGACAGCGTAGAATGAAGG
PBM binding z-score class ranges: lower bin: < 0.3; middle bin: ≥ 0.3 and < 3; upper bin: ≥ 3

Please review the following examples before continuing.
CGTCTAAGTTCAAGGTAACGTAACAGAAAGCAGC	upper bin
CAAACTAGGTCACGAAAGGTCAAAATCGAATGAC	upper bin
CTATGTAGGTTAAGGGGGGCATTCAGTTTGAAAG	upper bin
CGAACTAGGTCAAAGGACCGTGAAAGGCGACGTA	lower bin
CCTACTGGGCCACGAAAGGGCATTGATTCAGTGA	lower bin
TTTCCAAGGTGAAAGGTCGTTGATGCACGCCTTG	middle bin

Sort into band: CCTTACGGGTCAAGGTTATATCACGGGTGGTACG
middle bin

====

test system: PPARg:RXRa 90nM:30nM, anti-RXR (NR concentration 90 nM, RXRa partner concentration 30 nM); test: PBM binding z-score (relative to random genomic background probes); higher = stronger binding; sequences stand for … in GC…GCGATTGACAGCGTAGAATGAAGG
Outcome: t for PBM binding z-score of at least 2; f for anything lower.

Please review the following examples before continuing.
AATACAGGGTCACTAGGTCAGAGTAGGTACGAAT	t
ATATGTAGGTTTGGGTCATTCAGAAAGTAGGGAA	t
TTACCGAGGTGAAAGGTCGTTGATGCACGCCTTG	t
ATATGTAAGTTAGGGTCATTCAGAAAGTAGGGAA	t
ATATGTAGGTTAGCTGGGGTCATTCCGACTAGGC	t

Okay, now this sequence:
Decide: is the reported value of PBM binding z-score for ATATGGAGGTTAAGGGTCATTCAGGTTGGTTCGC equal to or greater than 2?
t

====

test system: RXRa DBDmut IVT, anti-RXR (DBD mutation: RXRa K156A/R161A, NR concentration 90 nM); test: PBM binding z-score (relative to random genomic background probes); higher = stronger binding; sequences stand for … in GC…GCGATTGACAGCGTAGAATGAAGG
PBM binding z-score reference
Lab note: jot the number down without any unit.

Sample records with PBM binding z-score:
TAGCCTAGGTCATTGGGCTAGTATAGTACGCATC	1.47
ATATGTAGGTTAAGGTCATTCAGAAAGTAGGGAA	2.75
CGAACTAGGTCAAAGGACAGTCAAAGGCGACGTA	1.74
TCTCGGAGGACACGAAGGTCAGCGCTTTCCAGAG	0.82
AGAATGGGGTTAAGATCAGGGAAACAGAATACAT	1.99

Moving on to the next sequence.
# get_value(readout='PBM binding z-score', item= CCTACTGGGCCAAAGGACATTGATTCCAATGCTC )
-0.27

====

tested on: PPARg:RXRa IVT, anti-PPARg (NR concentration 270 nM, RXRa partner concentration 90 nM); assay: PBM binding z-score (relative to random genomic background probes); higher = stronger binding; sequences stand for … in GC…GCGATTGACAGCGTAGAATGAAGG
Measurement label: PBM binding z-score
Lab note: jot the number down without any unit.

Sample records with PBM binding z-score:
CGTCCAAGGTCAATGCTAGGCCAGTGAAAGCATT	3.13
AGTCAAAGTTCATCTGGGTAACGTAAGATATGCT	3.77
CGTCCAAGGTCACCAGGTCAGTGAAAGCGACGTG	5.56
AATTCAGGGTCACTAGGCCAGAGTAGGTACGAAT	6.4
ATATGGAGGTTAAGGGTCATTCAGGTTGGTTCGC	5.42

Moving on to the next sequence.
# get_value(readout='PBM binding z-score', item= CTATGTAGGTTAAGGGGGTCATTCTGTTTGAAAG )
7.55

====

PBM binding z-score reference
test system: RXRa homodimer (NR concentration 180 nM); assay: PBM binding z-score (relative to random genomic background probes); higher = stronger binding; sequences stand for … in GC…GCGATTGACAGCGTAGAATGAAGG
Lab note: jot the number down without any unit.

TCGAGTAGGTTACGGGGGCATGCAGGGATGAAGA	2.78
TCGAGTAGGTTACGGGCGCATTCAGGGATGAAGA	0.599
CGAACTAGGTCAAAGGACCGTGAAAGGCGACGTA	2.86
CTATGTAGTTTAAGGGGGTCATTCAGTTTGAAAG	5.05
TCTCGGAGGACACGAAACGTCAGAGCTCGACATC	0.0278

# get_value(readout='PBM binding z-score', item= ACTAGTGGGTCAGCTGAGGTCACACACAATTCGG )
5.48

# get_value(readout='PBM binding z-score', item= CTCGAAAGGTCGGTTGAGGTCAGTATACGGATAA )
4.02

# get_value(readout='PBM binding z-score', item= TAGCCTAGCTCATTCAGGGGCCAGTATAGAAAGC )
-0.481

# get_value(readout='PBM binding z-score', item= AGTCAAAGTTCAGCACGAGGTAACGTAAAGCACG )
3.51

# get_value(readout='PBM binding z-score', item= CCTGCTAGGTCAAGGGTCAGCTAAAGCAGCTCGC )
7.49

Source of measurements: the supplement of paper PMC6555819
